Biological target: UniProt Q9HBX9
Sequence (Q9HBX9 1-757): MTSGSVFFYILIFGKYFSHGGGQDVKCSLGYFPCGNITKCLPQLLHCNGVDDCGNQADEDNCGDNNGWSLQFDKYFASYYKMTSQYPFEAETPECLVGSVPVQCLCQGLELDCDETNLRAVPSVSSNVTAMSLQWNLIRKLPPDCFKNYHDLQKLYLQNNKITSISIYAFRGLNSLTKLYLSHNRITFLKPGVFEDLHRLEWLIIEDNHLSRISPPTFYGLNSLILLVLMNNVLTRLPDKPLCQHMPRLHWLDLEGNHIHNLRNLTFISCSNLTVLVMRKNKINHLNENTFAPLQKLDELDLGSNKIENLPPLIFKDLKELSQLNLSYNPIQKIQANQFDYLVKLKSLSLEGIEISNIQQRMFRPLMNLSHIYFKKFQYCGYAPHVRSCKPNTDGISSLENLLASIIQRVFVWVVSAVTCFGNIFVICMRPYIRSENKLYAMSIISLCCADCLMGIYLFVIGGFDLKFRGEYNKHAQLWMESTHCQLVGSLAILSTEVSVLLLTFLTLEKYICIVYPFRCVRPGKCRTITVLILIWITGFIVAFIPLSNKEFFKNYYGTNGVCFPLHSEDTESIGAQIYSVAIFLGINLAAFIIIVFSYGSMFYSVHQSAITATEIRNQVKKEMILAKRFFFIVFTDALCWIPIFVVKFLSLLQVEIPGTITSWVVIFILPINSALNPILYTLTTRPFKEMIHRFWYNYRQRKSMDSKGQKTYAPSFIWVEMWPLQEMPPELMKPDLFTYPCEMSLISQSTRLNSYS
Assay: RXFP1 cyclic adenosine monophosphate (cAMP) assay, hRXFP1 HEK293
Conditions: HEK293 cells stably expressing human RXFP1; 30 min at room temperature; HTRF cAMP
property.measured: EC50 (nM)

Examples with their reported EC50 follow.
>>> readout_value("COc1ccc(C2=NOC3CNCC23)cc1C(=O)Nc1cc2c(cc1C(=O)Nc1ccc(F)c(C(F)(F)F)c1)OC(F)(F)O2 (single isomer, unassigned)")
13
>>> readout_value("COc1ccc(C2=NOC(CO)C2)cc1C(=O)Nc1cc2c(cc1C(=O)Nc1ccc(F)c(C(F)(F)F)c1)OC(F)(F)O2 (single isomer, unassigned)")
65
>>> readout_value("COc1ccc(C2=NOC3COCC23)cc1C(=O)Nc1cc2c(cc1C(=O)Nc1ccc(F)c(C(F)(F)F)c1)OC(F)(F)O2 (stereo not drawn)")
275
>>> readout_value("COc1ccc(C(=O)N2CC(C)(O)C2)cc1C(=O)Nc1cc2c(cc1C(=O)Nc1ccc(F)c(C(F)(F)F)c1)OC(F)(F)O2")
90

1. COc1ccc(-c2cc(C(=O)O)ccc2F)cc1C(=O)Nc1cc2c(C)noc2cc1C(=O)Nc1ccc(F)c(C(F)(F)F)c1
2. COc1ccc(-c2nc3c(s2)CN(CC(N)=O)CC3)cc1C(=O)Nc1cc2c(cc1C(=O)Nc1ccc(F)c(C(F)(F)F)c1)OC(F)(F)O2
Record comparison, field EC50: mark the lower of 1 and 2 . I would appreciate it if you answered with the label of your choice.
2
(2: 33 nM, 1: 116 nM)

* * *

target: human RXFP1 (Homo sapiens); assay: RXFP1 cyclic adenosine monophosphate (cAMP) assay, hRXFP1 HEK293; details: HEK293 cells stably expressing human RXFP1; 30 min at room temperature; HTRF cAMP
property.measured: EC50 (nM)

>>> readout_value("COc1ccc(C2CC3(C2)CN(C(=O)C(C)(C)O)C3)cc1C(=O)Nc1cc2c(cc1C(=O)Nc1ccc(F)c(C(F)(F)F)c1)OC(F)(F)O2")
666

1. COc1ccc(C(=O)N2CC[C@@H](O)C2)cc1C(=O)Nc1cc2c(cc1C(=O)Nc1ccc(F)c(C(F)(F)F)c1)OC(F)(F)O2
2. COc1ccc(C2=NOC3COCC23)cc1C(=O)Nc1cc2nc(C)sc2cc1C(=O)NC1CCCC1 (stereo not shown)
3. COc1ccc(C(=O)N(C)CCS(C)(=O)=O)cc1C(=O)Nc1cc2c(cc1C(=O)Nc1ccc(F)c(C(F)(F)F)c1)OC(F)(F)O2
Order by EC50, ascending. The reply should contain the labels ordered as requested.
1, 3, 2

* * *

target: human RXFP1 (Homo sapiens, UniProt Q9HBX9); assay: RXFP1 cyclic adenosine monophosphate (cAMP) assay, hRXFP1 HEK293; settings: HEK293 cells stably expressing human RXFP1; 30 min at room temperature; HTRF cAMP
property.measured: EC50 (µM)

a. COc1ccc(C2CCCN(S(C)(=O)=O)C2)cc1C(=O)Nc1cc2c(cc1C(=O)Nc1ccc(F)c(C(F)(F)F)c1)OC(F)(F)O2 (single isomer, unassigned)
b. COc1ccc(C(=O)N2CC(C(C)(C)O)C2)cc1C(=O)Nc1cc2c(cc1C(=O)Nc1ccc(F)c(C(F)(F)F)c1)OC(F)(F)O2
Response body: label of entry with the larger EC50; valid values a , b . I would appreciate it if you answered with the label of your choice.
a
(a: 0.154 µM, b: 0.084 µM)

* * *

target: human RXFP1 (Homo sapiens, UniProt Q9HBX9); assay: RXFP1 cyclic adenosine monophosphate (cAMP) assay, hRXFP1 HEK293; conditions: HEK293 cells stably expressing human RXFP1; 30 min at room temperature; HTRF cAMP
property.measured: EC50 (nM)

1. COc1ccc(-c2nc(N3CCOCC3)no2)cc1C(=O)Nc1cc2c(cc1C(=O)Nc1ccc(F)c(C(F)(F)F)c1)OC(F)(F)O2 [Example 87]
2. COc1ccc(C2=NOC3CC(O)CC23)cc1C(=O)Nc1cc2nc(C)sc2cc1C(=O)Nc1ccc(F)c(C(F)(F)F)c1 (single isomer, unassigned) [Example 24]
3. COc1ccc(C2=NOC3CN(C(=O)CO)CC23)cc1C(=O)Nc1cc2c(cc1C(=O)Nc1ccc(F)c(C(F)(F)F)c1)OC(F)(F)O2 (stereo not drawn) [Example 44]
4. COc1ccc(C2=NOC3CC(CO)CC23)cc1C(=O)Nc1cc2c(cc1C(=O)Nc1ccc(F)c(C(F)(F)F)c1)OC(F)(F)O2 (stereo not drawn) [Example 99]
Thanks in advance: please rank these 4 entries by EC50, highest to lowest. The reply should contain the labels ordered as requested.
2, 1, 3, 4
(2: 750 nM, 1: 161 nM, 3: 16 nM, 4: 3.9 nM)

1. COc1ccc(C2=NOC3(CCNC3)C2)cc1C(=O)Nc1cc2c(cc1C(=O)Nc1ccc(F)c(C(F)(F)F)c1)OC(F)(F)O2 (stereo not drawn) [Example 66]
2. COc1ccc(C2=NOC3CS(=O)(=O)CC23)cc1C(=O)Nc1cc2c(cc1C(=O)Nc1ccc(F)c(C(F)(F)F)c1)OC(F)(F)O2 (single isomer, unassigned) [Example 61]
Response body: label of entry with the larger EC50; valid values 1 , 2 . I would appreciate it if you answered with the label of your choice.
1
(1: 338 nM, 2: 17 nM)

* * *

molecular target: human RXFP1 (Homo sapiens); test: RXFP1 cyclic adenosine monophosphate (cAMP) assay, hRXFP1 HEK293; details: HEK293 cells stably expressing human RXFP1; 30 min at room temperature; HTRF cAMP
property.measured: EC50 (µM)

>>> readout_value("COc1ccc(C2=NOC3CN(C(=O)CO)CC23)cc1C(=O)Nc1cc2nc(C)sc2cc1C(=O)Nc1ccc(F)c(C(F)(F)F)c1 (centres unmarked) [Example 5]")
0.016

1. COc1ccc(C2=NOC(C)(CO)C2)cc1C(=O)Nc1cc2c(cc1C(=O)Nc1ccc(F)c(C(F)(F)F)c1)OC(F)(F)O2 (single isomer, unassigned) [Example 71]
2. COc1ccc(-c2ccc3c(c2)CCNC3)cc1C(=O)Nc1cc2c(cc1C(=O)Nc1ccc(F)c(C(F)(F)F)c1)OC(F)(F)O2 [Example 93]
3. CC(C)(C)NS(=O)(=O)c1ccc(F)c(-c2cc3c(c(C(=O)Nc4cc5c(cc4C(=O)Nc4ccc(F)c(C(F)(F)F)c4)OC(F)(F)O5)c2)OC(C)(C)C3)c1 [Example 101]
Order by EC50, ascending. The reply should contain the labels ordered as requested.
3, 1, 2
(3: 0.0098 µM, 1: 0.043 µM, 2: 1.09 µM)

1. COc1ccc(C2=NOC3(CCN(C(=O)CO)CC3)C2)cc1C(=O)Nc1cc2c(cc1C(=O)Nc1ccc(F)c(C(F)(F)F)c1)OC(F)(F)O2 [Example 68]
2. COc1ccc(C(=O)N2CCC3(CC2)COC3)cc1C(=O)Nc1cc2c(cc1C(=O)Nc1ccc(F)c(C(F)(F)F)c1)OC(F)(F)O2 [Example 42]
3. COCCOC1(C2CC(c3ccc(OC)c(C(=O)Nc4cc5nc(C)sc5cc4C(=O)Nc4ccc(F)c(C(F)(F)F)c4)c3)=NO2)CC1 (centres unmarked) [Example 12]
4. COc1ccc(C2=NOC(C(C)(C)O)C2)cc1C(=O)Nc1cc2c(cc1C(=O)Nc1ccc(F)c(C(F)(F)F)c1)OC(F)(F)O2 (single isomer, unassigned) [Example 77]
5. COc1ccc(C(=O)NCC2(S(C)(=O)=O)CC2)cc1C(=O)Nc1cc2c(cc1C(=O)Nc1ccc(F)c(C(F)(F)F)c1)OC(F)(F)O2 [Example 35]
Order by EC50, ascending. The reply should contain the labels ordered as requested.
5, 1, 3, 4, 2

P. COc1ccc(C2=NOC3(C2)CN(C(=O)CO)C3)cc1C(=O)Nc1cc2c(cc1C(=O)Nc1ccc(F)c(C(F)(F)F)c1)OC(F)(F)O2 [Example 75]
Q. COc1ccc(C2=NOC3CC(CO)CC23)cc1C(=O)Nc1cc2nc(C)sc2cc1C(=O)NC1CCCC1 (centres unmarked) [Example 19]
Response body: label of entry with the larger EC50; valid values P , Q . I would appreciate it if you answered with the label of your choice.
Q

All figures here come from patent US20250066344A1.
